Measurement Description: intrinsic compound fluorescence with Jurkat cells – cell-based, flow cytometry, artefact control for VLA-4 allosteric ligand project, primary screen (AID 576);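 also: green fluorescence of cells measured with 488 nm excitation and 530 nm emission; tested at 10 µM compound in the well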
Assay Context: compound autofluorescence, hits give high values, 1 = vehicle-only cell background
Hit rate of the full screen: of about 24,000 compounds, about 150 (0.62%) were called active. The sample as a whole holds a higher share of actives than the screen did.
Each entry below carries its recorded fluorescence ratio.
Quantity Measured: fluorescence ratio

> print(dat)
                                    compound   quantity.measured  obs.value
 1  CCOC(=O)N1CCC(NC(=O)CCc2cn(C)c3ccccc23)CC1  fluorescence ratio       0.96
 2  CCOC(=O)c1sc(=S)n2c1[nH]c(=O)c1ccc(C(=O)OC)cc12  fluorescence ratio        1.2
 3   COCCCNC(=O)CCc1nc2cccnc2n1Cc1ccc(OC)cc1  fluorescence ratio       1.04
 4          COc1ccccc1NC1=NC2(CCCC2)N=C(N)N1  fluorescence ratio       1.04
 5  CCOC(=O)CSc1nnc(CNC(=O)c2ccco2)n1-c1ccc(F)cc1  fluorescence ratio          1
 6  CCCNC(=O)C1CC(=O)N(c2ccc(OCC(=O)Nc3cccc(C)c3C)cc2)C1 (centres undefined)  fluorescence ratio       1.03
 7            c1cc(-c2nn[nH]n2)ccc1CN1CCCCC1  fluorescence ratio       1.02
 8              c1cnn(-c2cc(N3CCOCC3)ncn2)c1  fluorescence ratio        1.1
 9  CCOc1cc2[nH]c(=O)n(CCC(=O)NCc3ccc(OC)cc3)c(=O)c2cc1OCC  fluorescence ratio       0.94
10                      CC(=O)c1c(C)c[nH]c1C  fluorescence ratio       1.09
11           ON=C1/C(=N\O)CC2(C/C1=N/O)OCCO2  fluorescence ratio       1.11
12  Cn1cccc1C1(C(F)(F)F)NCCNC1=O (centres undefined)  fluorescence ratio       1.07
13                        N#CCCn1ncc2ccccc21  fluorescence ratio        0.9
14  CCOc1ccc(CNC(=O)C2CC(=O)N(C3CCCC3)C2)cc1OC (centres undefined)  fluorescence ratio       0.92
15  COCCn1c(=O)[nH]c2cc(C(=O)NCc3cccnc3)ccc2c1=O  fluorescence ratio       1.03
16       CCCCN(C)Cc1c(C)[nH]c2ccc(Cl)cc2c1=O  fluorescence ratio       1.01
17       CCOC(=O)c1sc(=S)n(-c2cccc(OC)c2)c1N  fluorescence ratio       1.14
18  CC1=C(C)CC2C(=O)N(c3cccc4ccccc34)C(=O)C2C1 (centres undefined)  fluorescence ratio       1.06
19  Cc1cc(C)c2c(n1)nn1c(N3CCN(c4cccc(Cl)c4)CC3)cc(C)nc21  fluorescence ratio        1.1
20  Cc1c(C(=O)Nc2ccccc2Cl)oc2ccc(S(=O)(=O)N3CCC4(CC3)OCCO4)cc12  fluorescence ratio       0.97
21  COc1cccc(NC(=O)C2CCCN2C(=O)OCc2ccccc2)c1 (centres undefined)  fluorescence ratio       1.04
22  COc1cccc(Nc2nnc(SCC(=O)N3CC(C)OC(C)C3)s2)c1 (centres undefined)  fluorescence ratio       1.02
23  O=S1(=O)CCN2C(=N1)SC1=C2CCN(Cc2ccccc2)C1  fluorescence ratio       0.99
24  CCOc1ccccc1NC(=O)C1CCN(S(=O)(=O)c2c(C)nn(C)c2C)CC1  fluorescence ratio       1.02

---

Each entry below carries its recorded fluorescence ratio.
Measurement Description: intrinsic compound fluorescence with Jurkat cells – cell-based, flow cytometry, artefact control for VLA-4 allosteric ligand project, primary screen (AID 576);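 also: green fluorescence of cells measured with 488 nm excitation and 530 nm emission; tested at 10 µM compound in the well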
Assay Context: compound autofluorescence, hits give high values, 1 = vehicle-only cell background
The campaign covered roughly 24,000 compounds. About 150 (0.62%) were called active. What follows is part of a selection rich in actives, with near analogues and random picks from the rest.
Quantity Measured: fluorescence ratio

> print(dat)
                                    compound   quantity.measured  obs.value
 1  CC(C)OCCCNC(=O)C1CC(=O)N(C2CCCCCCC2)C1 (stereo not drawn)  fluorescence ratio       0.98
 2  COc1ccc(N2C(=O)CCC(C(=O)N(C)C3CCCCC3)C2c2ccc(OC)c(OC)c2)cc1 (stereo not drawn)  fluorescence ratio       0.98
 3  Cc1c(C(=O)N2CC(C)OC(C)C2)sc2nc(-c3ccccc3)cn12 (stereo not drawn)  fluorescence ratio       1.33
 4         O=C(O)C1CCN(S(=O)(=O)N2CCOCC2)CC1  fluorescence ratio          1
 5  CC1CCN(Cc2nc3c(c(=O)n(C)c(=O)n3C)n2Cc2cccc3ccccc23)CC1  fluorescence ratio       1.06
 6  O=C(CN1CCN(CC(=O)Nc2ccc3c(c2)OCO3)CC1)Nc1ccc(F)cc1  fluorescence ratio       0.97
 7  CCOC(=O)N1CCN(S(=O)(=O)c2cc3c(cc2C)NC(=O)CO3)CC1  fluorescence ratio       1.09
 8  CC1CSc2nnc(CCc3ccccc3)n21 (stereo not drawn)  fluorescence ratio          1
 9  O=C(NCc1ccc2c(c1)OCO2)c1cc2c(s1)CS(=O)(=O)C2  fluorescence ratio       1.08
10  Cc1ccc(NC(=O)NCC(c2cccnc2)N2CCOCC2)cc1 (stereo not drawn)  fluorescence ratio       0.96
11  COc1ccc(CCNS(=O)(=O)c2ccc(C(=O)NCc3ccco3)cc2)cc1OC  fluorescence ratio       1.03
12  CCOC(=O)C1CCN(C(=O)C2CCN(S(=O)(=O)N3CCCC3)CC2)CC1  fluorescence ratio       0.96
13  Cc1nc(N2CCN(c3ncccn3)CC2)c2oc3ccccc3c2n1  fluorescence ratio       1.15
14      CCOC(=O)N1CCC(O)(c2cc(C)c(C)cc2C)CC1  fluorescence ratio       0.98
15  Cc1noc(C)c1CSc1nc2cc(S(=O)(=O)N3CCOCC3)ccc2o1  fluorescence ratio       1.05
16  CCC1CCCCN1CCNS(=O)(=O)c1ccc2c(c1)CCN2C(C)=O (stereo not drawn)  fluorescence ratio       1.02
17             O=C(Nc1cccnc1)c1ccc2c(c1)OCO2  fluorescence ratio       1.06
18  Cc1ccc(NC(=O)C2CCCN(S(=O)(=O)c3c(C)noc3C)C2)c(C)c1 (stereo not drawn)  fluorescence ratio       1.07
19         COc1ccccc1CNC(=O)Cn1cc2c(n1)CCCC2  fluorescence ratio       1.04
20    CCN(CC)CCCNC(=O)c1cc(-c2cccc(Cl)c2)on1  fluorescence ratio       1.16
21  N#CC1=C(N)Oc2cc(O)ccc2C1C1CCCCC1 (stereo not drawn)  fluorescence ratio       1.18
22             COCCNC(=O)CN1C(=O)CSc2ncccc21  fluorescence ratio       1.05
23              Cc1cc(NS(=O)(=O)c2ccccc2)no1  fluorescence ratio       0.95

---

Measurement Description: intrinsic compound fluorescence with Jurkat cells – cell-based, flow cytometry, artefact control for VLA-4 allosteric ligand project, primary screen (AID 576);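 also: green fluorescence of cells measured with 488 nm excitation and 530 nm emission; tested at 10 µM compound in the well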
Assay Context: compound autofluorescence, hits give high values, 1 = vehicle-only cell background
The whole screen tested about 24,000 compounds, of which about 150 (0.62%) were called active. Many of the other results were omitted from the sample, so actives are more common in it than they were.
Label scheme for fluorescence ratio: lower than 1 is Not satisfied, 1 and above is Satisfied.

> print(dat)
                                    compound    label.class
 1  CC(Sc1sc(=S)sc1SC(C)C(=O)O)C(=O)O (stereo unspecified)  Not satisfied
 2  O=C(NCCN1C(=O)C2C3C=CC(C3)C2C1=O)Nc1ccccn1 (stereo unspecified)  Not satisfied
 3           O=C(c1cnn2ccccc12)N1CCc2ccccc21  Not satisfied
 4  CCCCC(=O)N(c1ccc(OC)cc1)C1C=CS(=O)(=O)C1 (stereo unspecified)      Satisfied
 5  O=C(CN1CCN(c2ccc(F)cc2)CC1)Nc1cccc(C(F)(F)F)c1  Not satisfied
 6  CCCOc1ccc(C2c3c(oc4cc(C)c(C)cc4c3=O)C(=O)N2CCCN2CCOCC2)cc1 (stereo unspecified)  Not satisfied
 7  CC1(C)Oc2ccc3ccc(=O)oc3c2/C(=C/NCCO)C1=O      Satisfied
 8  CCOC(=O)CSc1nnc(CNC(=O)c2cccs2)n1-c1ccccc1      Satisfied
 9  COCc1[nH]nc2c1C(C1C=CCCC1)C(C#N)=C(N)O2 (stereo unspecified)      Satisfied
10    C=CCNC(=O)CSc1nc2sc(C)c(C)c2c(=O)[nH]1      Satisfied
